Values were extracted from patent US6441237B1.

REPORTED_PROPERTY: melting point (°C)

COMPOUND	REPORTED_PROPERTY	ASSAY_RESULT
C#CCNCC(COCc1c(F)cccc1F)c1c(C)cccc1C.Cl (stereo not drawn) [8.12]	melting point	145
C#CCNCC(COCc1c(F)cccc1F)c1c(C)cccc1C.Cl (stereo not drawn) [8.9]	melting point	124
Cc1cccc(C)c1C(CNCC1CC1)COCc1ccccc1F.Cl (stereo not drawn)	melting point	101
Br.Cc1cccc(C)c1C(CNC(C)C)COCc1ccccc1F (stereo not drawn)	melting point	111
Cc1cccc(C)c1C(CNCC1CC1)COCc1c(F)cccc1F.Cl (stereo not drawn)	melting point	145
Br.Cc1cccc(C)c1C(CNCC1CC1)COCc1ccccc1F (stereo not drawn)	melting point	101
Cc1cccc(C)c1C(CNC(C)C)COCc1ccccc1F.Cl (stereo not drawn)	melting point	123
Cc1cccc(C)c1C(CNCC1CCC1)COCc1ccccc1F.Cl (stereo not drawn)	melting point	191
C=CCN(C)CC(c1c(C)cccc1C)C(OC)c1c(F)cccc1F.Cl (stereo not drawn)	melting point	116
Cc1cccc(C)c1C(CNC(C)C)COCc1c(F)cccc1F.Cl (stereo not drawn)	melting point	138
Cc1cccc(C)c1C(COCc1c(F)cccc1F)CN(C)C.Cl (stereo not drawn)	melting point	144
C#CCNCC(COCc1ccccc1F)c1c(C)cccc1C.Cl (stereo not drawn)	melting point	112
Br.Cc1cccc(C)c1C(CNCC1CCCO1)COCc1c(F)cccc1F (stereo not drawn)	melting point	149
CCCNCC(COCc1ccccc1F)c1c(C)cccc1C.Cl (stereo not drawn)	melting point	100
COCCNCC(COCc1ccccc1F)c1c(C)cccc1C.Cl (stereo not drawn)	melting point	77
Br.CCCN(CCC)CC(COCc1c(F)cccc1F)c1c(C)cccc1C (stereo not drawn)	melting point	143
COCCNCC(COCc1c(F)cccc1F)c1c(C)cccc1C.Cl (stereo not drawn)	melting point	128
Cc1cccc(C)c1COCC(CNCC1CC1)c1c(C)cccc1C.Cl (stereo not drawn)	melting point	142
C=C(C)CN(C)CC(c1c(C)cccc1C)C(OC)c1c(F)cccc1F.O=C(O)C(=O)O (stereo not drawn)	melting point	128
Cc1cccc(C)c1C(CNC1CCCC1)COCc1c(F)cccc1F.Cl (stereo not drawn)	melting point	130
CCCNCC(COCc1c(F)cccc1F)c1c(C)cccc1C.Cl (stereo not drawn)	melting point	142
Cc1cccc(C)c1C(CNCC(C)C)COCc1c(F)cccc1F.Cl (stereo not drawn)	melting point	119
Cc1cccc(C)c1C(CNCC1CC1)COCc1c(F)cccc1Cl.Cl (stereo not drawn)	melting point	154
Cc1cccc(C)c1C(CNC1CCCC1)COCc1ccccc1F.Cl (stereo not drawn)	melting point	102
